- Experimental System: T1, 4H3438-AA
- T1 chain: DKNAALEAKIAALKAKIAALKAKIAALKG
- Assay Text: two-hybrid library CCmax;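 also: natural log of median RNA to DNA barcode read ratio; higher means stronger binding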
- Run Parameters: mean of both orientations
Field: interaction score. Provide a value for each of the binders that follow.
One number for each entry.

Examples with their reported interaction score follow.
DENAALKAKNAALEAEIAALKAEIAALKG [4H1930-AA]: -1.3
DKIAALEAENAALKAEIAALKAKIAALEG [4H2253-AA]: -1.2
DKIAALKAEIAALEAENAALKAKNAALKG [4H2592-AA]: -0.819
DKIAALEAEIAALKAEIAALKAENAALKG [4H2124-AA]: -0.0325
DKIAALKAENAALEAKIAALKAENAALKG [4H2732-AA]: -1.2

Please look at the items below and tell me interaction score for each one, in order.
1. DKIAALKAKIAALKAKNAALEAENAALEG [4H2931-AA]
2. DKIAALEAKIAALEAKIAALEAKNAALEG [4H2343-AA]
3. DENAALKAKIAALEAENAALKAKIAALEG [4H1821-AA]
4. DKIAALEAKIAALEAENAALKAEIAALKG [4H2330-AA]
5. DENAALKAEIAALKAEIAALKAKNAALEG [4H1615-AA]
6. DEIAALEAENAALKAKNAALKAEIAALEG [4H249-AA]
7. DENAALKAENAALKAKIAALEAKIAALEG [4H1765-AA]

Result:
1. -1.54
2. 0.393
3. -1.77
4. -1.59
5. -0.739
6. -1.6
7. -0.901

Give one value of interaction score per listed binder.
1. DKNAALEAEIAALEAEIAALEAEIAALEG [4H3073-AA]
2. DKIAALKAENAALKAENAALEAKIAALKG [4H2774-AA]
3. DKIAALKAKNAALKAEIAALEAKNAALEG [4H3015-AA]
4. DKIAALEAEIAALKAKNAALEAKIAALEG [4H2165-AA]

Result:
1.51
-1.63
-1.63
-1.07
